target-system: Bcl-xL (Homo sapiens)
Sequence (Q07817 whole entry): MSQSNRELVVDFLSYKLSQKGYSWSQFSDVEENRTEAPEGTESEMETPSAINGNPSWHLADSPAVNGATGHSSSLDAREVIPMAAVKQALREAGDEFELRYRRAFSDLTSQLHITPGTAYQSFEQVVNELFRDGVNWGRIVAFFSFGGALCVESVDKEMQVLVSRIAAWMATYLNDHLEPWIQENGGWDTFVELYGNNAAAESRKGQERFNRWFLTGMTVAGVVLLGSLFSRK
observed-property: Ki

Which Ki is reported for this molecule? CCOc1c(CN2O[C@@H](CO)[C@@H]([C@H](C)O)[C@H]2C(=O)N[C@H]2C[C@H]3C[C@@H]([C@@H]2C)C3(C)C)cccc1-c1cc(C(=O)N[C@@H](CC(C)C)CN(C)C)cc(N(C)C)c1 [Compound 35] < 1000 nM

Which Ki is reported for this molecule? CCOc1c(CN2O[C@@H](CO)[C@@H]([C@H](C)O)[C@H]2C(=O)N[C@H]2C[C@H]3C[C@@H]([C@@H]2C)C3(C)C)cccc1-c1cc(C(=O)N[C@H](CN(C)C)CS(C)(=O)=O)cc(N(C)C)c1 [Compound 176] 1000 to 5000 nM

Which Ki is reported for this molecule? CC(C)C[C@H](CN(C)C)NC(=O)c1cc(-c2cccc(CN3O[C@@H](CO)[C@@H]([C@H](C)O)[C@H]3C(=O)N[C@H]3C[C@H]4C[C@@H]([C@@H]3C)C4(C)C)c2OCC2CC2)cc(N(C)C)c1 [Compound 34] < 1000 nM

Which Ki is reported for this molecule? COc1c(CN2O[C@@H](CO)[C@@H]([C@H](C)O)[C@H]2C(=O)N[C@H]2C[C@H]3C[C@@H]([C@@H]2C)C3(C)C)cccc1-c1cc(C(=O)N[C@@H](CC(C)C)CN(C)C)cc(N2CCCCC2)c1 [Compound 268] 1000 to 5000 nM

Which Ki is reported for this molecule? CNC(=O)c1cc(-c2cccc(CN3O[C@@H](CN)[C@@H]([C@H](C)OC(=O)NCCN(C)C)[C@H]3C(=O)N[C@H]3C[C@H]4C[C@@H]([C@@H]3C)C4(C)C)c2OC)cc(N(C)C)c1 [Compound 92] > 10000 nM

Which Ki is reported for this molecule? COc1c(-c2cc(C(=O)N[C@@H](Cc3ccccc3)CN(C)C)cc(N(C)C)c2)ccc(Cl)c1CN1O[C@@H](CO)[C@@H]([C@H](C)O)[C@H]1C(=O)N[C@H]1C[C@H]2C[C@@H]([C@@H]1C)C2(C)C [Compound 274] 1000 to 5000 nM

Which Ki is reported for this molecule? CNC(=O)c1cc(-c2cccc(CN3O[C@@H](CN)[C@@H]([C@H](C)OC(=O)N(C)C)[C@H]3C(=O)N[C@H]3C[C@H]4C[C@@H]([C@@H]3C)C4(C)C)c2OC)cc(N(C)C)c1 [Compound 87] > 10000 nM

Which Ki is reported for this molecule? CNC(=O)c1cc(-c2cccc(CN3O[C@@H](CN(C)C)[C@@H]([C@H](C)O)[C@H]3C(=O)N[C@H]3C[C@H]4C[C@@H]([C@@H]3C)C4(C)C)c2OC)cc(N(C)C)c1 [Compound 99] > 10000 nM

Which Ki is reported for this molecule? COc1c(CN2O[C@@H](CN)[C@@H]([C@H](C)O)[C@H]2C(=O)N[C@H]2C[C@H]3C[C@@H]([C@@H]2C)C3(C)C)cccc1-c1cc(C(=O)N[C@@H](CC(C)C)CN(C)C)cc(N(C)C)c1 [Compound 72] < 1000 nM
